Tested on: soybean (Glycine max)
Test: Test B pre-/postemergence
Assay type: in vivo
Settings: Rate 250 g/ha, Postemergence
Answer each item with its documented Plant response rating, Soybean.
I only need the number, thanks.

Request: Give Plant response rating, Soybean; test system soybean (Glycine max); molecule Cc1cnc(-n2cnc(C(F)(F)F)n2)nc1C(=O)c1cccc(C(F)(F)F)c1 [Compound 67]
Response: 8

Request: Lab note: soybean (Glycine max) assay, enter Plant response rating, Soybean for Cc1cnc(-n2cnc(C(F)(F)F)c2)nc1C(=O)c1cccc(C(F)(F)F)c1 [Compound 61] here
Response: 5

Request: Send back soybean (Glycine max) Plant response rating, Soybean of Cc1cnc(-c2ccc(C(F)(F)F)cc2)nc1Cc1cccc(OC(F)(F)F)c1 [Compound 15] only.
Response: 9

Request: GET Plant response rating, Soybean | system: soybean (Glycine max) | item: Cc1cnc(-n2ccc(C(F)(F)F)n2)nc1Cn1ccc(C(F)(F)F)n1 [Compound 52]
Response: 9

Request: Enter recorded Plant response rating, Soybean with soybean (Glycine max) for Cc1cnc(-c2ccc(Cl)cc2)nc1Cc1cccc(C(F)(F)F)c1 [Compound 28] here.
Response: 7

Request: // output Plant response rating, Soybean; input CCc1cnc(-n2cnc(C(F)(F)F)n2)nc1Cc1cccc(OC(F)(F)F)c1 [Compound 50] ; system soybean (Glycine max)
Response: 7

Request: Report measured Plant response rating, Soybean on soybean (Glycine max); entry: Cc1cnc(-c2ccc(C#N)cc2)nc1Cc1cccc(C#N)c1 [Compound 36]
Response: 2

Request: State measured Plant response rating, Soybean of the molecule CCc1cnc(-n2ccc(C(F)(F)F)n2)nc1Cc1cccc(C(F)(F)F)c1 [Compound 46] with soybean (Glycine max).
Response: 9

Request: Determine reported Plant response rating, Soybean for Cc1cnc(-c2ccc(C(F)(F)F)cc2)nc1Cn1nc(C(F)(F)F)cc1C [Compound 13] ; test system: soybean (Glycine max).
Response: 5

###

Give Plant response rating, Barnyardgrass for every item shown.
System: bamyardgrass (Echinochloa crus-galli)
Experiment: Test B flood test
Type: in vivo
Settings: Rate 500 g/ha, Postemergence (flood test species)
Reply briefly: the number, and no unit.

Request: Look up and report measured Plant response rating, Barnyardgrass (bamyardgrass (Echinochloa crus-galli)) for the following compound: Cc1cnc(-c2ccc(C(F)(F)F)cc2)nc1Cn1cc(Br)cn1
Response: 4

Request: // output Plant response rating, Barnyardgrass; input Cc1cnc(-c2ccc(C(F)(F)F)cc2)nc1Cn1cnc(C(F)(F)F)c1 ; system bamyardgrass (Echinochloa crus-galli)
Response: 4

Request: Given Cc1cnc(-c2ccc(C(F)(F)F)cc2)nc1Cn1ccc(C(F)(F)F)n1 , report its Plant response rating, Barnyardgrass on bamyardgrass (Echinochloa crus-galli).
Response: 8

Request: Give Plant response rating, Barnyardgrass only, for Cc1cnc(-n2ccc(C(F)(F)F)n2)nc1C(=O)c1cccc(C(F)(F)F)c1 , using bamyardgrass (Echinochloa crus-galli) data.
Response: 8

Request: Enter Plant response rating, Barnyardgrass (test system bamyardgrass (Echinochloa crus-galli)) for Cc1cnc(-n2ccc(C(F)(F)F)n2)nc1Cc1cccc(C(F)(F)F)c1
Response: 6

###

Test system: purple nutsedge (Cyperus rotundus)
Test: Test E pre-/postemergence/post directed
Type: in vivo
Settings: PREEMERGENCE, Rate 125 g/ha
ASSAY READOUT: Plant response rating, Purple nutsedge
Number only, please.

Request: Lab note: record Plant response rating, Purple nutsedge of Cc1cnc(-n2cnc(C(F)(F)F)n2)nc1C(=O)c1cccc(C(F)(F)F)c1 [Compound 67] tested on purple nutsedge (Cyperus rotundus).
Response: 5

Request: Given Cc1cnc(-c2ccc(C(F)(F)F)cc2)nc1Cc1cccc(OC(F)(F)F)c1 [Compound 15] , report its Plant response rating, Purple nutsedge on purple nutsedge (Cyperus rotundus).
Response: 0

Request: Fill: Plant response rating, Purple nutsedge (purple nutsedge (Cyperus rotundus)) for this compound COc1cnc(-c2ccc(C(F)(F)F)cc2)nc1Cc1cccc(C(F)(F)F)c1 [Compound 23]
Response: 0

Request: Consider the compound Cc1cnc(-n2ccc(C(F)(F)F)n2)nc1Cc1cccc(C(F)(F)F)c1 [Example 2] tested on purple nutsedge (Cyperus rotundus); state its Plant response rating, Purple nutsedge.
Response: 0
